Origin of values: patent US8501953B2

# TARGET_UNDER_TEST: PKM2 (Homo sapiens)
# TEST_METHOD_NOTES: PKM2 Assay (activation; LDH-coupled, NADH absorbance at 340 nm)
# Format: biochemical
# ASSAY_CONTEXT: PKM2 50 ng/well, ADP 0.7 mM, PEP 0.15 mM, no FBP in Reaction Mix
# AC50 listing for each entry below

# CHEMICAL_STRING, TARGET_UNDER_TEST, RESULT
data = [
    ("O=c1[nH]c2cc(NS(=O)(=O)c3cccs3)ccc2s1", "PKM2 (Homo sapiens)", "10 to 50 µM"),
    ("Cn1c(=O)oc2cc(Cl)c(S(=O)(=O)Nc3ccccc3Cl)cc21", "PKM2 (Homo sapiens)", "1 to 10 µM"),
    ("O=c1[nH]c2cc(NS(=O)(=O)c3ccccc3)ccc2s1", "PKM2 (Homo sapiens)", "10 to 50 µM"),
]

Entry "Cc1ccc(NS(=O)(=O)c2cc3c(cc2C)oc(=O)n3C)cc1F" — recorded AC50 = < 1 µM

Entry "Cc1cc(C)cc(NS(=O)(=O)c2ccc3c(c2)oc(=O)n3Cc2ccccc2)c1" — recorded AC50 = 1 to 10 µM

Entry "O=c1sc2ccc(S(=O)(=O)Nc3ccc(Cl)cc3)cc2s1" — recorded AC50 = 1 to 10 µM

Entry "Cc1cc2oc(=O)n(C)c2cc1NS(=O)(=O)c1cc(Cl)cc(Cl)c1" — recorded AC50 = 10 to 50 µM

Entry "Cc1cc2oc(=O)n(C)c2cc1NS(=O)(=O)c1ccccc1Cl" — recorded AC50 = 10 to 50 µM

Entry "CCn1c(=O)oc2cc(Cl)c(S(=O)(=O)Nc3ccccc3Cl)cc21" — recorded AC50 = > 100 µM

---

# AC50 listing for each entry below
# TARGET_UNDER_TEST: PKM2 (Homo sapiens)
# TEST_METHOD_NOTES: PKM2 Assay (activation; LDH-coupled, NADH absorbance at 340 nm)
# Format: biochemical
# ASSAY_CONTEXT: PKM2 50 ng/well, ADP 0.7 mM, PEP 0.15 mM, no FBP in Reaction Mix

Answered cases to consult:
# MOLECULE, AC50
rows = [
    ("Cn1c(=O)oc2cc(S(=O)(=O)Nc3ccc(Cl)cc3)ccc21", "1 to 10 µM"),
    ("Cn1c(=O)sc2ccc(NS(=O)(=O)c3c(F)cccc3F)cc21", "1 to 10 µM"),
]

Reported AC50 (PKM2 (Homo sapiens)) for entry "Cn1c(=O)sc2cc(S(=O)(=O)N3CCCN(S(=O)(=O)c4ccccc4)CC3)ccc21" is 1 to 10 µM

Reported AC50 (PKM2 (Homo sapiens)) for entry "Cc1cc2sc(=O)sc2cc1S(=O)(=O)Nc1ccc(Cl)cc1" is 1 to 10 µM

Reported AC50 (PKM2 (Homo sapiens)) for entry "Cc1ccc(NS(=O)(=O)c2ccc3c(c2)oc(=O)n3C)cc1C" is < 1 µM

Reported AC50 (PKM2 (Homo sapiens)) for entry "CCn1c(=O)oc2cc(Cl)c(S(=O)(=O)Nc3ccc(Cl)cc3)cc21" is 1 to 10 µM

Reported AC50 (PKM2 (Homo sapiens)) for entry "Cn1c(=O)oc2cc(S(=O)(=O)Nc3c(F)cccc3F)ccc21" is 1 to 10 µM

Reported AC50 (PKM2 (Homo sapiens)) for entry "Cc1cc2sc(=O)sc2cc1S(=O)(=O)Nc1ccccc1Cl" is 1 to 10 µM

Reported AC50 (PKM2 (Homo sapiens)) for entry "COc1ccc(Cl)cc1S(=O)(=O)Nc1cc2c(cc1F)oc(=O)n2C" is 10 to 50 µM

---

# TARGET_UNDER_TEST: UniProt:P14618
# TEST_METHOD_NOTES: PKM2 Assay (activation; LDH-coupled, NADH absorbance at 340 nm)
# Format: biochemical
# ASSAY_CONTEXT: PKM2 50 ng/well, ADP 0.7 mM, PEP 0.15 mM, no FBP in Reaction Mix
# Text: […]
# AC50 listing for each entry below

# CHEMICAL_STRING, AC50
rows = [
    ("Cc1cc2c(cc1S(=O)(=O)N1CCN(c3ccc(C(F)(F)F)cn3)CC1)oc(=O)n2C", "1000 to 10000 nM"),
]

Entry "Cn1c(=O)oc2cc(S(=O)(=O)Nc3cc(Cl)cc(Cl)c3)ccc21" — recorded AC50 = < 1000 nM

Entry "Cc1ccc(NS(=O)(=O)c2cc3c(cc2C)oc(=O)n3C)cc1C" — recorded AC50 = < 1000 nM

Entry "COc1ccc(C)cc1S(=O)(=O)Nc1ccc(NS(=O)(=O)c2ccc3c(c2)oc(=O)n3C)cc1" — recorded AC50 = 1000 to 10000 nM

Entry "Cn1c(=O)oc2cc(S(=O)(=O)Nc3ccc(OC(F)(F)F)c(Cl)c3)ccc21" — recorded AC50 = 1000 to 10000 nM

Entry "O=c1[nH]c2cc(NS(=O)(=O)c3cccc(Cl)c3)ccc2s1" — recorded AC50 = 10000 to 50000 nM

Entry "Cc1cc2oc(=O)n(C)c2cc1S(=O)(=O)Nc1ccc(Cl)c(F)c1" — recorded AC50 = 1000 to 10000 nM

---

# TARGET_UNDER_TEST: PKM2 (Homo sapiens, UniProt P14618)
# Sequence (P14618 whole entry): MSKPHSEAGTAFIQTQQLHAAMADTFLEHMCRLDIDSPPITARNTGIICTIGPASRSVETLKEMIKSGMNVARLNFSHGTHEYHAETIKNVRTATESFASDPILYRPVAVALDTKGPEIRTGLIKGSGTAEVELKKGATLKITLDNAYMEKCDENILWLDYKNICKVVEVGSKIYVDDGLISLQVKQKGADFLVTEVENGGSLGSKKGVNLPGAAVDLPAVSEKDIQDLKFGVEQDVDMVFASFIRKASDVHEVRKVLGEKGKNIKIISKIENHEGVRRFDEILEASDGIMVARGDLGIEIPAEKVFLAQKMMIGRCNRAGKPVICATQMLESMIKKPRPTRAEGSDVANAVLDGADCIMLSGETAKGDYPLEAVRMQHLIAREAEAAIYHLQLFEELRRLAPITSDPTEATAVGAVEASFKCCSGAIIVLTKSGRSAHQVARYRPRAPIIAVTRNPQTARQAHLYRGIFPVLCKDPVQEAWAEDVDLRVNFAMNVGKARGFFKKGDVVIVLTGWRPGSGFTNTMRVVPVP
# TEST_METHOD_NOTES: PKM2 Assay (activation; LDH-coupled, NADH absorbance at 340 nm)
# Type: biochemical
# ASSAY_CONTEXT: PKM2 50 ng/well, ADP 0.7 mM, PEP 0.15 mM, no FBP in Reaction Mix
# AC50 listing for each entry below

Answered cases to consult:
# CHEMICAL_STRING, TARGET_UNDER_TEST, RESULT
measured = [
    ("Cn1c(=O)oc2cc(S(=O)(=O)Nc3ccc(F)c(F)c3)ccc21", "PKM2 (Homo sapiens, UniProt P14618)", "< 1000 nM"),
    ("Cc1cc2oc(=O)n(C)c2cc1NS(=O)(=O)c1ccccc1C", "PKM2 (Homo sapiens, UniProt P14618)", "1000 to 10000 nM"),
    ("Cn1c(=O)oc2cc(S(=O)(=O)Nc3cc(F)cc(Cl)c3)ccc21", "PKM2 (Homo sapiens, UniProt P14618)", "< 1000 nM"),
    ("Cn1c(=O)oc2cc(S(=O)(=O)Nc3cccc(Cl)c3)ccc21", "PKM2 (Homo sapiens, UniProt P14618)", "< 1000 nM"),
]

Entry "COCCn1c(=O)oc2cc(C)c(S(=O)(=O)Nc3ccc(F)c(C)c3)cc21" — recorded AC50 = 1000 to 10000 nM

Entry "Cc1cc(C)cc(NS(=O)(=O)c2cc3c(cc2C)oc(=O)n3C)c1" — recorded AC50 = < 1000 nM

Entry "Cn1c(=O)oc2cc(S(=O)(=O)NC(C)(C)C)ccc21" — recorded AC50 = > 100000 nM

Entry "COc1ccc(S(=O)(=O)N2CCN(S(=O)(=O)c3ccc4c(c3)sc(=O)n4C)CC2)cc1" — recorded AC50 = < 1000 nM

Entry "Cc1cc(C)cc(NS(=O)(=O)c2cc3oc(=O)n(C)c3cc2C)c1" — recorded AC50 = < 1000 nM

Entry "CCn1c(=O)oc2cc(S(=O)(=O)Nc3ccc(F)cc3)c(C)cc21" — recorded AC50 = 10000 to 50000 nM

---

# TARGET_UNDER_TEST: PKM2 (Homo sapiens)
# TEST_METHOD_NOTES: PKM2 Assay (activation; LDH-coupled, NADH absorbance at 340 nm)
# Assay type: biochemical
# ASSAY_CONTEXT: PKM2 50 ng/well, ADP 0.7 mM, PEP 0.15 mM, no FBP in Reaction Mix
MEASURED_QUANTITY: AC50

Answered cases to consult:
# CHEMICAL_STRING, AC50
measured = [
    ("Cc1cc2oc(=O)n(C)c2cc1S(=O)(=O)N1CCN(C(=O)Cc2ccc(C(F)(F)F)cc2)CC1", "> 100 µM"),
    ("COc1ccc(Cl)cc1NS(=O)(=O)c1cc2c(cc1Cl)oc(=O)n2C", "1 to 10 µM"),
    ("Cc1cc2oc(=O)sc2cc1NS(=O)(=O)c1cccs1", "10 to 50 µM"),
    ("Cn1c(=O)oc2cc(S(=O)(=O)Nc3cccc(C(F)(F)F)c3)ccc21", "1 to 10 µM"),
    ("Cc1cc(S(=O)(=O)Nc2ccc(F)c(Cl)c2)cc2oc(=O)n(CCN(C)C)c12", "< 1 µM"),
    ("O=c1oc2cc(S(=O)(=O)Nc3ccc(F)cc3)ccc2n1Cc1ccccc1", "1 to 10 µM"),
    ("COc1ccc(Cl)cc1S(=O)(=O)Nc1ccc2oc(=O)[nH]c2c1", "10 to 50 µM"),
]

Turning to the following molecule.
Entry "Cc1cc2c(cc1S(=O)(=O)N1CCN(C(=O)COc3ccc(-n4cnnn4)cc3)CC1)oc(=O)n2C" — recorded AC50 = 10 to 50 µM
